Reference for the values: ChEMBL document CHEMBL1201862

# Tested on: TK-10
# assay-method-text: NCI tumour cell line growth inhibition, 48 h
Calls of active or inactive are those of the source. Cut-off read from the data, not from the text of the source: active = GI50 up to about 1.1 µM and inactive = higher.
Each entry below carries its reported GI50.

compound	GI50
O=c1[nH]c(=O)c2c([nH]1)[nH]c1ccc(Br)cc12	> 100 µM (inactive)
Cc1cn(C2CC(OC(c3ccccc3)(c3ccccc3)c3ccccc3)C(COC(c3ccccc3)(c3ccccc3)c3ccccc3)O2)c(=O)[nH]c1=O (stereo unspecified)	42.5 µM (inactive)
C=C1C(OC2O[C@@H]3O[C@@]4(C)CC[C@H]5[C@H](C)CC[C@@H](C2=C)[C@@]35O4)O[C@@H]2O[C@@]3(C)CC[C@H]4[C@H](C)CC[C@@H]1[C@@]24O3 (stereo partly specified)	> 50 µM (inactive)
COC(=O)[C@@H]1C(=O)O[C@@H](c2ccc3c(c2)OCO3)[C@@H]1C(=O)OC.COC(=O)[C@H]1C(=O)O[C@@H](c2ccc3c(c2)OCO3)[C@@H]1C(=O)OC	> 100 µM (inactive)
ICC1CCCO1 (stereo unspecified)	> 100 µM (inactive)

Query: GET /values?readout=GI50&system=TK-10&item= OCC1OC(c2scc3c(=S)[nH]cnc23)C(O)C1O (stereo unspecified)
Reply: 5.45 µM (inactive)
